These data points were gathered from the Immune Epitope Database (IEDB).

Target or test system: HLA-A*24:02
Run description: IEDB peptide-MHC binding, purified MHC/direct/fluorescence; filed as Kd, often an IC50 or EC50 that approximates it; bounds were set here for any values at or beyond the usual limits of such assays
Conditions: source organism: Influenza A virus (A/tiger/Thailand/CU-T4/04(H5N1))
Metric name: Kd

[[record]]
sequence = "FVRTLFQQM"
recorded_result = "≥ 20 µM"


====

Target or test system: HLA-A*69:01
Run description: IEDB peptide-MHC binding, purified MHC/direct/fluorescence; filed as Kd, often an IC50 or EC50 that approximates it; bounds were set here for any values at or beyond the usual limits of such assays
Conditions: source organism: Shigella dysenteriae
Metric name: Kd

[[record]]
sequence = "ALELGRKTL"
target_or_test_system = "HLA-A*69:01"
recorded_result = "≥ 20 µM"


====

Target or test system: HLA-A*24:02
Run description: IEDB peptide-MHC binding, purified MHC/competitive/radioactivity; filed as Kd, often an IC50 or EC50 that approximates it; bounds were set here for any values at or beyond the usual limits of such assays
Conditions: source organism: Mammarenavirus juninense
Metric name: Kd

[[record]]
sequence = "EDAMPGVLSY"
recorded_result = "≥ 46.4 µM"


====

Target or test system: HLA-C*14:02
Run description: IEDB peptide-MHC binding, purified MHC/competitive/fluorescence; filed as Kd, often an IC50 or EC50 that approximates it; bounds were set here for any values at or beyond the usual limits of such assays
Conditions: source organism: Yersinia pestis Nepal516
Metric name: Kd

[[record]]
sequence = "MVLSGTLAY"
target_or_test_system = "HLA-C*14:02"
metric_name = "Kd"
recorded_result = "123 nM"


====

Measured pKd, listed per entry for reference.
Target or test system: HLA-A*01:01
Run description: IEDB peptide-MHC binding, purified MHC/direct/fluorescence; filed as Kd, often an IC50 or EC50 that approximates it; bounds were set here for any values at or beyond the usual limits of such assays
Conditions: source organism: Zaire ebolavirus
pKd: −log10 of the molar value.
Metric name: pKd

[[record]]
sequence = "GHMMVIFRL"
metric_name = "pKd"
recorded_result = "≤ 4.70"

[[record]]
sequence = "YDRLASTVI"
metric_name = "pKd"
recorded_result = "≤ 4.70"


====

Target or test system: HLA-B*44:02
Run description: IEDB peptide-MHC binding, purified MHC/direct/fluorescence; filed as Kd, often an IC50 or EC50 that approximates it; bounds were set here for any values at or beyond the usual limits of such assays
Conditions: source organism: Yellow fever virus 17D
Metric name: Kd

[[record]]
sequence = "VRGGMVAPL"
metric_name = "Kd"
recorded_result = "≥ 20 µM"


====

Target or test system: HLA-A*24:03
Run description: IEDB peptide-MHC binding, purified MHC/direct/fluorescence; filed as Kd, often an IC50 or EC50 that approximates it; bounds were set here for any values at or beyond the usual limits of such assays
Conditions: source organism: Zaire ebolavirus
Metric name: Kd

[[record]]
sequence = "MHYKLDEVL"
metric_name = "Kd"
recorded_result = "≥ 20 µM"

[[record]]
sequence = "YDRLASTVI"
metric_name = "Kd"
recorded_result = "≥ 20 µM"

[[record]]
sequence = "GHMMVIFRL"
metric_name = "Kd"
recorded_result = "≥ 20 µM"

[[record]]
sequence = "APFARLLNL"
metric_name = "Kd"
recorded_result = "≥ 20 µM"

